The values you see were collected from patent US8013006B2.

Assignment: determine reported melting point for the given compounds.

Worked examples, 3 compounds total:
1) CCn1c(-c2ccc(S(=O)(=O)NC)cc2)c(C#N)c2cc(-c3cccc(OC)c3)ccc21 | 135 to 140 °C
2) CCn1c(-c2ccc(NS(=O)(=O)C3CC3)cc2)c(C#N)c2cc(Cl)ccc21 | 179 to 184 °C
3) CCC(=O)Nc1cccc(C#Cc2c(C#N)c3ccc(OC)cc3n2CC)c1 | 187 to 191 °C

In the following, a different compound is considered.
Entry "CCn1c(-c2ccc(NS(=O)(=O)CCCCl)cc2)c(C#N)c2ccc(OC)cc21" , melting point reported as 176 to 177 °C
